Data provenance: ChEMBL document CHEMBL3714766

Would you kindly list IC50 for each of these compounds?
Biological target: Pyruvate dehydrogenase kinase (Homo sapiens, UniProt Q15119+Q15120+Q16654+Q15118)
Test: Binding affinity to pyruvate dehydrogenase kinase (unknown origin) by VER-00160364 probe based fluorescence polarization assay

Solved entries (count: 8):
CC1CCc2cc(C(=O)N(C)Cc3ccc(F)cc3)ccc2N1C(=O)c1ccc(O)cc1O (stereo unspecified) | 10 nM
C[C@H]1CCc2cc(-c3nc4ccccc4nc3C(F)(F)F)ccc2N1C(=O)c1ccc(O)cc1O | 100 nM
Cc1nc(N(C)C)nc(-c2ccc3c(c2)CC[C@H](C)N3C(=O)c2ccc(O)cc2O)c1C | 1000 nM
CCc1nccnc1-c1ccc2c(c1)CC[C@H](C)N2C(=O)c1ccc(O)cc1O | 100 nM
CC1CCc2cc(C(=O)N(C)C)ccc2N1C(=O)c1ccc(O)cc1O (stereo unspecified) | 100 nM
CC1CCc2cc(-c3nccn3C)ccc2N1C(=O)c1ccc(O)cc1O (stereo unspecified) | 100 nM
C[C@H]1CCc2ccccc2N1C(=O)c1cc(Cl)c(O)cc1O | 100 nM
Cc1cc(S(=O)(=O)NCc2ccn(C)n2)cnc1-c1ccc2c(c1)CC[C@H](C)N2C(=O)c1ccc(O)cc1O | 100 nM

Count: 5. Required value per item: IC50.
1. CC1CCc2cc(C(=O)N(C)Cc3nc4ccccc4s3)ccc2N1C(=O)c1ccc(O)cc1O (stereo unspecified)
2. C[C@H]1CCc2ccccc2N1C(=O)c1cc(F)c(O)cc1O
3. CCNc1ccc(-c2ccc3c(c2)CC[C@H](C)N3C(=O)c2ccc(O)cc2O)c(C)n1
4. Cc1cc2cc(Cl)ccc2nc1-c1ccc2c(c1)CC[C@H](C)N2C(=O)c1ccc(O)cc1O
5. Cc1cccnc1-c1ccc2c(c1)CC[C@H](C)N2C(=O)c1ccc(O)cc1O

output:
100 nM
100 nM
100 nM
1000 nM
100 nM
